The reported measurements were obtained from PubChem BioAssay AID330.

Test system: P388 leukemia ip, CD2F1 mice, survival T/C
Test Description: NCI In Vivo Anticancer Drug Screen. Data for tumor model P388 Leukemia (intraperitoneal) in CD2F1 (CDF1) mice
Settings: endpoint: median survival time; dose: 50.0 mg/kg/injection; schedule: Q01DX005 (ip); vehicle: Klucel (hydroxypropylcellulose) (HPC); higher = longer survival
Toxic doses and inconclusive results are not listed.
Measurement Label: T/C

[[record]]
compound = "[CH3][Sn]([CH3])([O]C(=O)c1ccc2c(c1)OCO2)[O]C(=O)c1ccc2c(c1)OCO2"
measurement_label = "T/C"
value_measured = "112 % of control"

[[record]]
compound = "CC1=C(C)C(N2CCOCC2)CS(=O)(=O)O1 (centres undefined)"
measurement_label = "T/C"
value_measured = "109 % of control"

[[record]]
compound = "Cc1ccccc1N1CCN(C(=O)c2nc3ccccc3[nH]2)CC1"
measurement_label = "T/C"
value_measured = "91 % of control"

[[record]]
compound = "CCCNc1nc(C)nc2[nH]c(Cc3ccccc3)c(C)c12"
measurement_label = "T/C"
value_measured = "97 % of control"

[[record]]
compound = "Cc1ccc([B-]23OCC[N+]2(CNC(=O)c2ccccc2O)CCO3)cc1 (centres undefined)"
measurement_label = "T/C"
value_measured = "103 % of control"


[in] Given the compound O=C(NC(Cc1cn(Cc2ccccc2)cn1)C(=O)O)OCC1c2ccccc2-c2ccccc21 (centres undefined) , what is its reported T/C?
[out] 104 % of control

[in] Using the record for `COc1ccc(C=NC(C)(C)CO)cc1OC` , report its T/C.
[out] 109 % of control

[in] Consider the compound COc1ccc2c(c1)CCC1C=NOC21 (centres undefined) and give its measured T/C.
[out] 97 % of control

[in] Please give the measured T/C for this compound: `O=C1c2ccccc2C(=O)c2c1nc1sccn21`
[out] 105 % of control

----------
Tested on: P388 leukemia ip, CD2F1 mice, survival T/C
Test Description: NCI In Vivo Anticancer Drug Screen. Data for tumor model P388 Leukemia (intraperitoneal) in CD2F1 (CDF1) mice
Settings: endpoint: median survival time; dose: 50.0 mg/kg/injection; schedule: Q01DX005 (ip); vehicle: Klucel (hydroxypropylcellulose) (HPC); higher = longer survival
Method: The antitumor activity of compounds was measured in mice bearing transplantable tumors. Survival or tumor size were measured and the results are expressed as the measurement made in the treated group (T) divided by the measurement made in the vehicle treated control group (C). The tumor model used in this assay is P388 Leukemia (intraperitoneal) in CD2F1 (CDF1) mice
Inconclusive results and toxic doses are left out.
molecules and their reported T/C

[[record]]
molecule = "CCCCNC1C2CCC(C)(C1O)C2(C)C (stereo not drawn)"
value_measured = "97 % of control"


[in] Reported T/C, molecule `COc1cc(C(=O)NCC(=O)NN=C(C)C)cc(OC)c1OC` : ____
[out] 104 % of control

[in] Would you kindly share the measured T/C for `CN1CN(c2ccc([N+](=O)[O-])cc2)N=N1` ?
[out] 95 % of control

[in] Which T/C value is on record for CC(OCc1ccccc1)C(NC(=O)OC(C)(C)C)C(=O)O (stereo not drawn) ?
[out] 113 % of control

[in] Please give the measured T/C for this molecule: `C[CH2][Ge]([CH2]C)[CH2]C(=O)OC.C[CH2][Ge]([CH2]C)[CH2]C(=O)OC`
[out] 100 % of control

[in] Dear colleague, I am looking for the recorded T/C of the following molecule: CN1C2CCC1CC(O)(c1ccc(Cl)cc1)C2 (stereo not drawn)
[out] 107 % of control

[in] Could you tell me which T/C is on file for `CC(C)NC(=O)OCc1c(COC(=O)NC(C)C)c([N+](=O)[O-])n2c1CCC2` ?
[out] 99 % of control

[in] # T/C lookup, item COc1ccc(CC2(OC(C)=O)N=NC(C)(C)O2)cc1 (stereo not drawn)
[out] 103 % of control
